Values from PubChem BioAssay (Tox21)

Measurement description: qHTS assay to identify small molecule agonists of the vitamin D receptor (VDR) signaling pathway - cell viability counter screen (AID 743224); note: nearly all actives have a fitted effect of over 50% in size
Experimental context: VDR-bla HEK293T viability, CellTiter-Glo luminescence, 16 h; series mostly up to 62.6 µM
Inconclusive results are not listed. Active and inactive are the calls of the source. Calls come from the whole dose curve; as a rule, active = well fitted cell-killing curve with a large enough effect in the repeat runs; inconclusive = weak or mixed curves, or effect the other way; inactive = no such curve, though single readings can be large or run the other way.
Entry note: the call must match one of active, inactive

Enquiry: Hey, what did the test say about CCCCN(CCCC)C(=O)N(CCCC)CCCC ?
Return: inactive

Enquiry: Hey, what did the test say about CCCCCCCC[P+](CCCCCCCC)(CCCCCCCC)CCCCCCCC ?
Return: active

Enquiry: Hey, what did the test say about COC(=O)c1cc(Cl)ccc1OC ?
Return: inactive

Enquiry: Hey, what did the test say about COc1c(C)c2c(c(O)c1C/C=C(\C)CCC(=O)O)C(=O)OC2 ?
Return: inactive

Enquiry: Hey, what did the test say about Cc1c(C)c2c(c(C)c1OC(=O)CCC(=O)O)CC[C@@](C)(CCC[C@H](C)CCC[C@H](C)CCCC(C)C)O2 ?
Return: inactive

* * *

Measurement description: qHTS RealTime-Glo MT Cell Viability Assay in HepG2 cells - 24 hour (AID 1224867); note: nearly all actives have a fitted effect of over 50% in size
Experimental context: RealTime-Glo luminescence; series mostly up to 76.8 µM
Results filed as inconclusive are left out. Activity calls are given as the source filed them. Calls follow the shape of the dose curve; as a rule, active = well fitted cell-killing curve with a large enough effect in the repeat runs; inconclusive = weak or mixed curves; inactive = flat fitted curve, though single readings scatter.
Entry note: the call must match one of active, inactive

Enquiry: Hey, what did the test say about Oc1c(Cl)cc(Cl)c2cccnc12 ?
Return: inactive

Enquiry: Hey, what did the test say about C[n+]1ccn(Cc2ccccc2)c1 ?
Return: inactive

Enquiry: Hey, what did the test say about CN(C)[C@@H]1C(=O)C(C(N)=O)=C(O)[C@@]2(O)C(=O)C3=C(O)c4c(O)ccc(Cl)c4[C@@H](O)[C@H]3C[C@@H]12 ?
Return: inactive

Enquiry: Hey, what did the test say about CC(C)OC(=O)c1cc2c(OCC(O)CNC(C)(C)C)cccc2[nH]1 (stereo not given) ?
Return: inactive

Enquiry: Hey, what did the test say about CN(C)c1ccc(SC#N)cc1 ?
Return: inactive

Enquiry: Hey, what did the test say about O=C(Nc1ccc(Oc2ccc(Cl)cc2)c(Cl)c1)c1cc(I)cc(I)c1O ?
Return: inactive

Enquiry: Hey, what did the test say about Cc1c(C)c2c(c(C)c1O)CCC(C)(COc1ccc(CC3SC(=O)NC3=O)cc1)O2 (stereo not given) ?
Return: inactive

Enquiry: Hey, what did the test say about CCCCCCCCNC(C)C(O)c1ccc(SC(C)C)cc1 (stereo not given) ?
Return: active

Enquiry: Hey, what did the test say about COc1cc(/C=C/C(=O)O[C@H]2CC[C@]34C[C@]35CC[C@]3(C)[C@@H]([C@H](C)CCC=C(C)C)CC[C@@]3(C)[C@@H]5CC[C@H]4C2(C)C)ccc1O ?
Return: inactive

Enquiry: Hey, what did the test say about N=C1N=C(N)c2cc3ccccc3cc21 ?
Return: active

Enquiry: Hey, what did the test say about CCCCN(CCCC)c1ccc(C(=O)c2ccccc2C(=O)O)c(O)c1 ?
Return: inactive

Enquiry: Hey, what did the test say about CC(=O)N1CCN(c2ccc(OC[C@H]3CO[C@](Cn4ccnc4)(c4ccc(Cl)cc4Cl)O3)cc2)CC1 ?
Return: active

Enquiry: Hey, what did the test say about C[C@]12CCC(=O)C=C1CC[C@@H]1[C@@H]2[C@@H](O)C[C@@]2(C)[C@H]1CC[C@]2(O)C(=O)COC(=O)CCC(=O)O ?
Return: inactive

Enquiry: Hey, what did the test say about Nc1cc(C(F)(F)F)ccc1S ?
Return: inactive

Enquiry: Hey, what did the test say about CCc1oc2ccccc2c1C(=O)c1cc(Br)c(O)c(Br)c1 ?
Return: inactive

Enquiry: Hey, what did the test say about O=c1cc(-c2ccc(O)cc2)oc2cc(O)cc(O)c12 ?
Return: inactive

Enquiry: Hey, what did the test say about CCCCCCCC[P+](CCCCCCCC)(CCCCCCCC)CCCCCCCC ?
Return: active

Enquiry: Hey, what did the test say about Cc1cccc2c1cc1ccc3cccc4ccc2c1c34 ?
Return: inactive

Enquiry: Hey, what did the test say about CSc1ccc(/C=C2/C(C)=C(CC(=O)O)c3cc(F)ccc32)cc1 ?
Return: inactive

Enquiry: Hey, what did the test say about Cc1oc(-c2ccccc2)nc1CCC(=O)c1ccc(CC2SC(=O)NC2=O)cc1 (stereo not given) ?
Return: inactive
